# Test system: NCI-H226 lung
# procedure summary: NCI-60 one-dose screen, 48 h
# conditions used: 10 µM unless noted
About 83,000 compounds went through this panel and 20% of them were active in at least one assay; those are over-represented in the sample as a whole. Calls of active or inactive are those of the source. The calls were made as follows: active = growth percent below 10; inactive = the rest.
Returns: one label drawn from active, inactive

[
  {
    "compound": "CC[C@H](C)[C@H](NC(=O)CN(C)C)C(=O)N(C)[C@H](C[C@@H](OC(C)=O)c1nc(C(=O)NC23CC(C(=O)OC)(C2)C3)cs1)C(C)C",
    "category": "inactive"
  }
]

So what was the verdict on CC12CCC3C4CCC(=O)C=C4CCC3C1CC1CC(=O)OC12 (stereo not given) in this test?
inactive

Assay result, entry C/C(=C(\c1ccc(OCCN2CCOCC2)cc1)c1ccc(OC(=O)Cc2ccccc2)cc1)c1ccc(Cl)cc1 — outcome?
inactive
